Where these numbers come from: patent US9724381B2

Biological target: Ghrelin/GHRP/GHS Receptor (Rattus norvegicus)
Sequence (O08725 whole entry): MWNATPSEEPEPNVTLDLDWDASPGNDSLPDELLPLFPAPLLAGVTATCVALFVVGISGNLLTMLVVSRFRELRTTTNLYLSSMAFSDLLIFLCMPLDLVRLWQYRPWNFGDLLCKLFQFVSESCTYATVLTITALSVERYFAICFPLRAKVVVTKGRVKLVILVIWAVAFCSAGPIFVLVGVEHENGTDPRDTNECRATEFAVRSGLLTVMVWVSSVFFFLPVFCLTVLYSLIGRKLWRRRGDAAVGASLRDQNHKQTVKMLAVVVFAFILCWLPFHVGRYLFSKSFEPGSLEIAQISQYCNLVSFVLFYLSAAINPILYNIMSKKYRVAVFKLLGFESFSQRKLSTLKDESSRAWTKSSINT
Test: In vitro GH release from isolated pituitary glands, pituitary incubation method
Format: cell-based
Settings: Table 1; peptide antagonist 30 μg/ml + stimulator His-DTrp-Ala-Trp-DPhe-Lys-NH2 10 ng/ml
Protocol: Hormonal activities were obtained from in vitro studies using pituitaries of 20 day old CD-1 strain Sprague Dawley female rats. Two pituitaries were incubated for a total of 4-6 hours. Medium was removed each hour for RIA of GH level and fresh medium was added again. […] Peptide activity was calculated as the change in the hormonal level (delta) between I3+I4 and P2. […] Each value recorded represents the mean of 6. […]
Where no end group is shown, it is not given here. [ ]: non-standard residue; d: D form.
Listing: Change in stimulated GH release versus preincubation (delta) of selected substances
quantity measured: Change in stimulated GH release versus preincubation (delta) (ng/mL)

>  <substance>
His-DTrp-DLys-Trp-DPhe-Lys-NH2 (H[dW][dK]W[dF]K-NH2; N-terminus assumed; SMILES NCCCC[C@H](NC(=O)[C@@H](Cc1ccccc1)NC(=O)[C@H](Cc1c[nH]c2ccccc12)NC(=O)[C@@H](CCCCN)NC(=O)[C@@H](Cc1c[nH]c2ccccc12)NC(=O)[C@@H](N)Cc1c[nH]cn1)C(N)=O)

>  <tested system>
Ghrelin/GHRP/GHS Receptor (Rattus norvegicus)

>  <numeric readout>
-175

$$$$
>  <substance>
Tyr-DTrp-DTrp-Phe-Phe-NH2 (Y[dW][dW]FF-NH2; N-terminus assumed; SMILES NC(=O)[C@H](Cc1ccccc1)NC(=O)[C@H](Cc1ccccc1)NC(=O)[C@@H](Cc1c[nH]c2ccccc12)NC(=O)[C@@H](Cc1c[nH]c2ccccc12)NC(=O)[C@@H](N)Cc1ccc(O)cc1)

>  <tested system>
Ghrelin/GHRP/GHS Receptor (Rattus norvegicus)

>  <numeric readout>
-167

$$$$

---

Target: Ghrelin/GHRP/GHS Receptor (Rattus norvegicus)
Assay: In vitro GH release from cell culture of pituitary cells
Format: cell-based
Design: After dispersion, the cells were collected by centrifugation, wash with DMEM and placed into culture well; endogenous in cells; host or cells: dispersed primary rat anterior pituitary cells
Settings: Table 8; peptide antagonist dosage 3 (head prints μg/i.v.)
Where no end group is shown, it is not given here. [ ]: non-standard residue; d: D form. Cha = N[C@@H](CC1CCCCC1)C(=O)O; dCha = N[C@H](CC1CCCCC1)C(=O)O; Nle = CCCC[C@H](N)C(=O)O; dPal = not defined here; Aib = CC(C)(N)C(=O)O
Decide using Unstimulated Basal GH release from cell cultures of pituitary cells alone. Strictly below 1000 ng/mL: met. Equal to or above 1000 ng/mL: not met.

>  <substance>
DLys-Tyr-DTrp-DTrp-Phe-NH2 ([dK]Y[dW][dW]F-NH2; N-terminus assumed; SMILES NCCCC[C@@H](N)C(=O)N[C@@H](Cc1ccc(O)cc1)C(=O)N[C@H](Cc1c[nH]c2ccccc12)C(=O)N[C@H](Cc1c[nH]c2ccccc12)C(=O)N[C@@H](Cc1ccccc1)C(N)=O)

>  <label class>
not met

$$$$
>  <substance>
His-DTrp-DTrp-Lys-NH2 (H[dW][dW]K-NH2; N-terminus assumed; SMILES NCCCC[C@H](NC(=O)[C@@H](Cc1c[nH]c2ccccc12)NC(=O)[C@@H](Cc1c[nH]c2ccccc12)NC(=O)[C@@H](N)Cc1c[nH]cn1)C(N)=O)

>  <label class>
not met

$$$$
>  <substance>
DPal-Phe-DTrp-Phe-Met-NH2 ([dPal]F[dW]FM-NH2; reading uncertain; also: printed as DPal-Phe-DTrp-Phe-Met-NH2)

>  <label class>
not met

$$$$
>  <substance>
Ac-DLys-Tyr-DTrp-DTrp-Phe-NH2 (Ac-[dK]Y[dW][dW]F-NH2; SMILES CC(=O)N[C@H](CCCCN)C(=O)N[C@@H](Cc1ccc(O)cc1)C(=O)N[C@H](Cc1c[nH]c2ccccc12)C(=O)N[C@H](Cc1c[nH]c2ccccc12)C(=O)N[C@@H](Cc1ccccc1)C(N)=O)

>  <label class>
met

$$$$
>  <substance>
αAib-DTrp-DcyclohexylAla-NH2 ([Aib]-[dW]-[dCha]-NH2; N-terminus assumed; SMILES CC(C)(N)C(=O)N[C@H](Cc1c[nH]c2ccccc12)C(=O)N[C@H](CC1CCCCC1)C(N)=O)

>  <label class>
met

$$$$
>  <substance>
DPal-Trp-DPhe-Phe-Met-NH2 ([dPal]W[dF]FM-NH2; reading uncertain; also: printed as DPal-Trp-DPhe-Phe-Met-NH2)

>  <label class>
not met

$$$$
>  <substance>
αAib-DTrp-DAla-cyclohexylAla-NH2 ([Aib][dW][dA][Cha]-NH2; N-terminus assumed; SMILES C[C@@H](NC(=O)[C@@H](Cc1c[nH]c2ccccc12)NC(=O)C(C)(C)N)C(=O)N[C@@H](CC1CCCCC1)C(N)=O)

>  <label class>
not met

$$$$
>  <substance>
DPhe-Ala-Phe-DPal-NH2 ([dF]AF[dPal]-NH2; reading uncertain; also: printed as DPhe-Ala-Phe-DPal-NH2)

>  <label class>
met

$$$$
>  <substance>
DPhe-Trp-DPhe-Phe-Met-NH2 ([dF]W[dF]FM-NH2; N-terminus assumed; SMILES CSCC[C@H](NC(=O)[C@H](Cc1ccccc1)NC(=O)[C@@H](Cc1ccccc1)NC(=O)[C@H](Cc1c[nH]c2ccccc12)NC(=O)[C@H](N)Cc1ccccc1)C(N)=O)

>  <label class>
not met

$$$$
>  <substance>
DAla-DcyclohexylAla-Ala-Ala-Phe-DPhe-Nle-NH2 ([dA][dCha]AAF[dF][Nle]-NH2; N-terminus assumed; SMILES CCCC[C@H](NC(=O)[C@@H](Cc1ccccc1)NC(=O)[C@H](Cc1ccccc1)NC(=O)[C@H](C)NC(=O)[C@H](C)NC(=O)[C@@H](CC1CCCCC1)NC(=O)[C@@H](C)N)C(N)=O)

>  <label class>
met

$$$$
>  <substance>
Arg-DTrp-Leu-Tyr-Trp-Pro(cyclic Arg-Pro)

>  <label class>
not met

$$$$
